Assay: Half life in BALB/cAnNCrl mouse at 10 mg/kg, po
Conditions: in vivo
quantity.measured: half-life (h)

*Q* Sample `CC(C)(C)c1cc(NC(=O)Nc2cccc(Oc3ccnc4[nH]c(=O)cnc34)c2)n(-c2ccccc2)n1` — what was its half-life?
*A* 1.4

*Q* Also need `Cc1ccc(-n2nc(C(C)(C)C)cc2NC(=O)Nc2ccc(Oc3ccnc4[nH]c(=O)c(=O)[nH]c34)cc2F)cc1` , thanks.
*A* 5.4

(a) Cc1ccc(-n2nc(C(C)(C)C)cc2NC(=O)Nc2cccc(Oc3ccnc4[nH]c(=O)cnc34)c2)cc1
(b) CSc1cc(Oc2ccnc3[nH]c(=O)cnc23)ccc1NC(=O)Nc1cc(C(C)(C)C)nn1-c1ccc(C)cc1
*Q* Please indicate which entry, a or b , has the lower recorded half-life value. Give the label under which the chosen entry appears.
*A* a
(a: 4 h, b: 7.9 h)

----------
Molecular target: Serine/threonine-protein kinase B-raf (Homo sapiens, UniProt P15056, V600E)
Sequence (P15056 2-766 V600E limits assumed): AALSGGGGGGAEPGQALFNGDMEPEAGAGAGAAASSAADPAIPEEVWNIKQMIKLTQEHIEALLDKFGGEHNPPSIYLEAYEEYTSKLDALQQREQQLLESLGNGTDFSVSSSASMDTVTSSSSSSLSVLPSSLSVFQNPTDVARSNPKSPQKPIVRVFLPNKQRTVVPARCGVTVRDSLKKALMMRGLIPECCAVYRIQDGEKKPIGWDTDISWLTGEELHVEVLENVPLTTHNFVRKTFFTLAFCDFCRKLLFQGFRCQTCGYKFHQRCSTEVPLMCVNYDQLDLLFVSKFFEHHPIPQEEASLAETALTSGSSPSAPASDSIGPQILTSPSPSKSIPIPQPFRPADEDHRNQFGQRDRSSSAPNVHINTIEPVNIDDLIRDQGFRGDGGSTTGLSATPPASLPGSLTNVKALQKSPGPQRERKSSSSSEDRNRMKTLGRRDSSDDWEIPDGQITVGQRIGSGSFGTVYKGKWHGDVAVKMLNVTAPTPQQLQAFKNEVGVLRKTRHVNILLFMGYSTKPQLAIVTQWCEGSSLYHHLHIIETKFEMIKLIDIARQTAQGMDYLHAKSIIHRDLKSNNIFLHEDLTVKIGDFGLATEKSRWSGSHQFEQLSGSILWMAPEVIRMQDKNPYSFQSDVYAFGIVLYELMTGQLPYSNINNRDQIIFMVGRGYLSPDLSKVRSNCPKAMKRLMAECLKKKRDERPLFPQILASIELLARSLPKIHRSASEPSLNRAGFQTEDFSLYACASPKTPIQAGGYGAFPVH
Test: Inhibition of B-Raf V600E mutant
pIC50: −log10 of the molar value.
quantity.measured: pIC50

(a) CSc1cc(Oc2ccnc3[nH]c(=O)c(C)nc23)ccc1NC(=O)Nc1cc(C(C)(C)C)nn1-c1ccccc1
(b) Cc1ccc(-n2nc(C(C)(C)C)cc2NC(=O)Nc2ccc(Oc3ccnc4[nH]c(=O)c(N)nc34)c3ccccc23)cc1
(c) Nc1nc2c(Oc3ccc(NC(=O)Nc4cc(C(F)(F)F)ccc4F)c4ccccc34)ccnc2[nH]c1=O
(d) CC(C)(C)c1cc(NC(=O)Nc2cccc(Oc3ccnc4ncc(=O)[nH]c34)c2)n(-c2ccccc2)n1
*Q* List from greatest to least pIC50. State the ranking by listing the labels in the requested order.
*A* c, a, b, d
(c: 8.30, a: 7.70, b: 6.82, d: 6.19)

(I) CSc1cc(Oc2ccnc3[nH]c(=O)cnc23)ccc1NC(=O)Nc1cc(C(C)(C)C)nn1-c1ccc(C)cc1
(II) CC(C)(C)c1cc(NC(=O)Nc2ccc(Oc3ccnc4nc(N)c(=O)[nH]c34)c3ccccc23)n(-c2ccccc2)n1
(III) CC(C)(C)c1cc(NC(=O)Nc2ccc(Oc3ccnc4ncc(=O)[nH]c34)cc2F)n(-c2ccccc2)n1
(IV) Cc1ccc(-n2nc(C(C)(C)C)cc2NC(=O)Nc2ccc(Oc3ccnc4[nH]c(=O)cnc34)c3ccccc23)cc1
(V) O=C(Nc1ccc(Oc2ccnc3[nH]c(=O)cnc23)cc1F)Nc1cc(C(F)(F)F)ccc1F
*Q* Descending sort on pIC50 required. State the ranking by listing the labels in the requested order.
*A* V, I, IV, II, III
(V: 8.40, I: 7.72, IV: 7.10, II: 6.39, III: 6.03)

(A) CN(C)Cc1nc2c(Oc3ccc(NC(=O)Nc4cc(C(F)(F)F)ccc4F)c(F)c3)ccnc2[nH]1
(B) O=C(Nc1ccc(Oc2ccnc3ncc(=O)[nH]c23)cc1)Nc1cc(C(F)(F)F)ccc1F
(C) CC(C)(C)c1cc(NC(=O)Nc2ccc(Oc3ccnc4ncc(=O)[nH]c34)c3ccccc23)n(-c2ccccc2)n1
(D) O=C(Nc1cccc(Oc2ccnc3[nH]c(=O)cnc23)c1)c1cccc(OC(F)(F)F)c1
(E) CC(C)(C)c1cc(NC(=O)Nc2ccc(Oc3ccnc4nc(N5CCOCC5)cnc34)cc2F)n(-c2ccccc2)n1
*Q* Descending sort on pIC50 required. State the ranking by listing the labels in the requested order.
*A* D, C, A, B, E
